# System: METTL3/14 (Homo sapiens, UniProt Q86U44)
# Construct: The enzyme used was full-length his-tagged METTL3; His; made in house
# Sequence (Q86U44 whole entry): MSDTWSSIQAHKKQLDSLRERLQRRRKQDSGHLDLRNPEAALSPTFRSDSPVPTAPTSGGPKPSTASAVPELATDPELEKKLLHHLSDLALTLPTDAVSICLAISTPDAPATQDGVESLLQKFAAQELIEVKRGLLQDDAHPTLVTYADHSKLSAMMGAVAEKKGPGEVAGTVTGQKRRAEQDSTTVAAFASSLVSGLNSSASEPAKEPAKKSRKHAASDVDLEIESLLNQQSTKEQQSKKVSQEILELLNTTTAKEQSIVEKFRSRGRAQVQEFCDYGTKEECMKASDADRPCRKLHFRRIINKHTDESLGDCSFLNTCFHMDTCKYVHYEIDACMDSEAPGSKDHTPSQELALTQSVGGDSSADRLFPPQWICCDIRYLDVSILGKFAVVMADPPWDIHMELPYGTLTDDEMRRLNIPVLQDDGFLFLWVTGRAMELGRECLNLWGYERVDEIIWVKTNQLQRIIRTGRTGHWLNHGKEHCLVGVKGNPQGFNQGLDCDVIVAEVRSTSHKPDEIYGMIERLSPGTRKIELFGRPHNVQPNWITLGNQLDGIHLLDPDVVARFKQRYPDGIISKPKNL
# Sequence (Q9HCE5 whole entry partner): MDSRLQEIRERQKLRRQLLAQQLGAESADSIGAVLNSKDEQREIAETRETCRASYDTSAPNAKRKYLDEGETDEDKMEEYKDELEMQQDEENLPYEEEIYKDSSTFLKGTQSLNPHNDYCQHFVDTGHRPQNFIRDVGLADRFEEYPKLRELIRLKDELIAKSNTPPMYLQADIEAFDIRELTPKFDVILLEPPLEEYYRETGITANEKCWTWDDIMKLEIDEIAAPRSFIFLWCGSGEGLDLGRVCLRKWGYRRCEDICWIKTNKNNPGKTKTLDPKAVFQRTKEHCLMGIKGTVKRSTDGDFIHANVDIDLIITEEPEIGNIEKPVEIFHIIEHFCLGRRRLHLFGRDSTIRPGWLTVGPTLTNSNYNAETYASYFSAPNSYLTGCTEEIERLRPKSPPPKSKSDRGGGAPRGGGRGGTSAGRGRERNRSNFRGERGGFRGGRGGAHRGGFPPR
# Measurement Description: METTL3/14 methyltransferase assay (METTL3_14 RFMS, RapidFire mass spectrometry)
# Format: biochemical
# Condition Set: 5 nM METTL3/14, 0.2 μM RNA substrate, 0.5 μM SAM; lower limit of the assay IC50=5 nM; Compounds 63-265; read-out: METTL3_14 RFMS IC50
Quantity Measured: IC50 (nM)

>>> df
                            molecule_smiles  quantity_measured  unit_info  recorded_result
0  O=C(NCc1cn2cc(CN3CCCCC3)ccc2n1)c1cc(=O)n2ccccc2n1               IC50         nM             69.1
1  O=C(NCC1CCCCC1)c1ccc2nc(Cn3cc(-c4cccc5[nH]ncc45)nn3)cn2c1               IC50         nM              229
2  Brc1cc(-c2cn(Cc3cn4cc(CNCC5CCCCC5)ccc4n3)nn2)c2cn[nH]c2c1               IC50         nM             8.14

I: COc1ccc(CNCc2ccc3nc(CNC(=O)c4cc(=O)n5ccccc5n4)cn3c2)cc1
II: O=C(NCc1cn2cc(COCc3ccccc3)ccc2n1)c1cc(=O)n2ccccc2n1
III: CC(C)(C)NCc1ccc2nc(CNC(=O)c3cc(=O)n4ccccc4n3)cn2c1
IV: C[C@@H](NCc1ccc2nc(CNC(=O)c3cc(=O)n4ccccc4n3)cn2c1)c1ccccc1
Exercise: Write the entries in order, lowest recorded IC50 first. List each label, following the requested order.
Key: IV, I, III, II

P: C[C@@H]1COC[C@H](c2ccc3nc(CNC(=O)c4cc(=O)n5ccccc5n4)cn3c2)N1
Q: CC(C)CNCc1ccc2nc(CNC(=O)c3cc(=O)n4ccccc4n3)cn2c1
R: O=C(NCc1cn2cc(CNC3CC(F)(F)C3)ccc2n1)c1cc(=O)n2ccccc2n1
Exercise: List these items ordered by IC50, big to small. List each label, following the requested order.
Key: P, R, Q
(P: 1390 nM, R: 102 nM, Q: 16.3 nM)

I: O=C(NCc1cn2cc(CNC3CCC3)ccc2n1)c1cc(=O)n2ccccc2n1
II: Cc1ccc2nc(Cc3nnc(-c4cccc5[nH]ncc45)s3)cn2c1
Exercise: Compare I and II by numeric IC50 and name the larger one. Use the label to indicate which entry you chose.
Key: II

----------
# System: METTL3/14 (Homo sapiens, UniProt Q86U44)
# Construct: The enzyme used was full-length his-tagged METTL3; His; made in house
# Measurement Description: METTL3/14 methyltransferase assay (METTL3_14 RFMS, RapidFire mass spectrometry);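 note: recombinant His-tagged METTL3 with FLAG-tagged METTL14 from baculovirus, SAH product quantified by mass spectrometry against isotope-labelled internal standards, 60 min at room temperature, scaled between no-RNA and DMSO-only wells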
# Format: biochemical
# Condition Set: 5 nM METTL3/14, 0.2 μM RNA substrate, 0.5 μM SAM; lower limit of the assay IC50=5 nM; Compounds 63-265; read-out: METTL3_14 RFMS IC50
pIC50: −log10 of the molar value.
Quantity Measured: pIC50

In [3]: df
Out[3]:
                                   molecule                                    system  recorded_result
0  CC1(C)CCCN(Cc2ccc3nc(CNC(=O)c4cc(=O)n5ccccc5n4)cn3c2)C1  METTL3/14 (Homo sapiens, UniProt Q86U44)             7.84

a: O=C(NCc1cn2cc(CNCc3ccc(Cl)cc3)ccc2n1)c1cc(=O)c2ccccc2o1
b: O=C(NCc1cn2cc(CNCC3CCC3F)ccc2n1)c1cc(=O)n2ccccc2n1 (stereo not drawn)
Exercise: Compare a and b by numeric pIC50 and name the larger one. Use the label to indicate which entry you chose.
Key: b
